# target-entity: hGLP-1R (Homo sapiens)
# Sequence (P43220 24-463): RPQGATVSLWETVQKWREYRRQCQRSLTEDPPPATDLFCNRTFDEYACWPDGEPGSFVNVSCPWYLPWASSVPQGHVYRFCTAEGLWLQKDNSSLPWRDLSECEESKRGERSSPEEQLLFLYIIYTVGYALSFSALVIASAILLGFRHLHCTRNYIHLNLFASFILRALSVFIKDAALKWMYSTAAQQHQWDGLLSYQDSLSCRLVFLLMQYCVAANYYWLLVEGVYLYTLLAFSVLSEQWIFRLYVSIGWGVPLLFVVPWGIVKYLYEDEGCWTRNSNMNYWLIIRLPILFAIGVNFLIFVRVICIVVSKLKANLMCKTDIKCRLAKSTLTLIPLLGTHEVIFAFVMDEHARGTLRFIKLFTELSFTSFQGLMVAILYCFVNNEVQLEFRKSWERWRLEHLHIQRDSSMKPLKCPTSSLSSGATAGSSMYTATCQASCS
# protocol: Functional cAMP activity in the presence of 1% HSA
# Assay type: cell-based
# experimental-setup: read-out: cAMP Rel EC50, hGLP-1R
Starred links: 1 amine or outer side, 2 acyl side, 3 side chain; linkers in the order of their positions; H or OH if unused. Non-standard residues stand in square brackets, D forms with d. Groups on a side chain read outwards from the residue. No end group written: not given here. *: point of attachment. C18 diacid = O=C(O)CCCCCCCCCCCCCCCCC(=O)*; αMePhe(2-F) = C[C@](N)(Cc1ccccc1F)C(=O)O; γGlu = O=C(O)[C@H](CCC(=O)[*:2])N[*:1]; 4Pal = N[C@@H](Cc1ccncc1)C(=O)O; αMeL = CC(C)C[C@](C)(N)C(=O)O; Orn = NCCC[C@H](N)C(=O)O; AEEA = NCCOCCOCC(=O)O; Aib = CC(C)(N)C(=O)O
metric: EC50 (nM)
Report the figure in nM without appending any unit label.

- Y[Aib]QGTFTSDFS[Orn][αMeL]LDKK([AEEA-γGlu-C18 diacid])AQ[Aib]AFIEYLLAGGPSSGEPPPEGE-NH2 [Example 98]: 660
- H-Y[Aib]QGTFTSDFS[Orn][αMeL]LDKK([AEEA-γGlu-C18 diacid])AQ[Aib]AFIEYLLE[Aib]GHSSGAPPPSGS-NH2 [Example 241]: 264

Next:
Q: Look at this substance and give its reported EC50. H-Y[Aib]QGT[αMePhe(2-F)]TSD[4Pal]SI[αMeL]LDKK([γGlu-γGlu-C18 diacid])AQ[Aib]AFIEYLEEGGPSSGEPPPSGTGE-NH2 [Example 624]
Ans: 63.4

----------
# target-entity: hGIPR (Homo sapiens, UniProt P48546)
# Sequence (P48546 22-466): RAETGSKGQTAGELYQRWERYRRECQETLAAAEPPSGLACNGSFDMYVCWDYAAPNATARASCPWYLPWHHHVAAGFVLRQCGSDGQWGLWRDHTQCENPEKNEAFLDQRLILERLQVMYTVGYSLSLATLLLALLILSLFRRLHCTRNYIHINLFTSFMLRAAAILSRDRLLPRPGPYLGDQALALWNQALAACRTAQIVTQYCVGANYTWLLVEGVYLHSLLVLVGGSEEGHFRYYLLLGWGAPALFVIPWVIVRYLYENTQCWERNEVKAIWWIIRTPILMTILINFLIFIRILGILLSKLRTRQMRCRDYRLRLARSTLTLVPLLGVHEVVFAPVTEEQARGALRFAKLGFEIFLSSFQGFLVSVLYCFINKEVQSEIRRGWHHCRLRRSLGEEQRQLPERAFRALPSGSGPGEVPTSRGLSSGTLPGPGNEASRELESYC
# protocol: Functional cAMP activation in the presence of 0.1% casein (no HSA);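 note: intracellular cAMP rise after 30 min at 37 °C read by HTRF against a standard curve, scaled between buffer alone (0%) and top control ligand concentration (100%), four-parameter fit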
# Assay type: cell-based
# experimental-setup: in the presence of 0.1% casein (no HSA); geometric mean; read-out: Relative cAMP EC50, hGIPR
Starred links: 1 amine or outer side, 2 acyl side, 3 side chain; linkers in the order of their positions; H or OH if unused. Non-standard residues stand in square brackets, D forms with d. Groups on a side chain read outwards from the residue. No end group written: not given here. *: point of attachment. C20 diacid = O=C(O)CCCCCCCCCCCCCCCCCCC(=O)*; C18 diacid = O=C(O)CCCCCCCCCCCCCCCCC(=O)*; αMePhe(2-F) = C[C@](N)(Cc1ccccc1F)C(=O)O; γGlu = O=C(O)[C@H](CCC(=O)[*:2])N[*:1]; αMe4Pal = C[C@](N)(Cc1ccncc1)C(=O)O; αMeY = C[C@](N)(Cc1ccc(O)cc1)C(=O)O; 4Pal = N[C@@H](Cc1ccncc1)C(=O)O; αMeL = CC(C)C[C@](C)(N)C(=O)O; αMeS = C[C@](N)(CO)C(=O)O; Orn = NCCC[C@H](N)C(=O)O; AEEA = NCCOCCOCC(=O)O; Aib = CC(C)(N)C(=O)O
metric: pEC50
Please report pEC50 as the negative decimal logarithm of the molar concentration, giving only the number.

Worked examples, 2 substances total:
• H-Y[Aib]QGT[αMePhe(2-F)]TSDYSI[αMeL]LDKK([AEEA-AEEA-γGlu-C20 diacid])AA[Aib]AFIEYLIETGPSSGAPPPSEG-NH2 [Example 383] = 10.39
• H-Y[Aib]QGTFTSD[4Pal]SQ[αMeL]LDKK([AEEA-γGlu-C18 diacid])AQ[αMe4Pal]AFIE[αMe4Pal]LIE[Aib]GPSSGAPPPSGTE-NH2 [Example 1116] = 9.87

Q: Look at this substance and give its reported pEC50. Y[Aib]QGT[αMePhe(2-F)]TSD[4Pal][αMeS]I[αMeL]LD[Orn]K([AEEA-γGlu-C18 diacid])AQ[αMe4Pal]EFI[dE][αMeY]LIEGGPSSGAPPPESE-NH2 [Example 1146]
Ans: 11.20

Q: Look at this substance and give its reported pEC50. H-Y[Aib]QGTFTSD[4Pal]SQ[αMeL]LDKK([γGlu-γGlu-C18 diacid])AQ[αMe4Pal]AFIEYLIAGGESSGAPPPSGSEE-NH2 [Example 963]
Ans: 9.61

Q: Look at this substance and give its reported pEC50. Y[Aib]QGTFTSD[4Pal]SQ[αMeL]LDKK([AEEA-γGlu-C18 diacid])AQ[αMe4Pal]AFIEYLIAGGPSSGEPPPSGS-NH2 [Example 828]
Ans: 9.83

Q: Look at this substance and give its reported pEC50. H-Y[Aib]QGTFTSDFSK[αMeL]LDKK([AEEA-γGlu-C20 diacid])AQ[Aib]AFIEYLLAGGPSSGEPPPSGS-NH2 [Example 8]
Ans: 9.64

Q: Look at this substance and give its reported pEC50. H-Y[Aib]QGTFTSD[4Pal]S[Orn][αMeL]LDKK([AEEA-γGlu-γGlu-C18 diacid])AQ[αMe4Pal]AFIE[αMe4Pal]LIE[Aib]GPSSGEPPPSGS-NH2 [Example 987]
Ans: 9.71

Q: Look at this substance and give its reported pEC50. H-Y[Aib]QGT[αMePhe(2-F)]TSDYSKILDKIAQK([AEEA-γGlu-C20 diacid])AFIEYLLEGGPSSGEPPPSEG-NH2 [Example 311]
Ans: 9.95

Q: Look at this substance and give its reported pEC50. H-Y[Aib]QGTFTSDFSK[αMeL]LDKK([AEEA-γGlu-C20 diacid])AQ[Aib]AFIEWLLAGGPSSGEPPPSEG-NH2 [Example 20]
Ans: 9.42

Q: Look at this substance and give its reported pEC50. H-Y[Aib]QGTFTSD[4Pal]S[Orn][αMeL]LD[Orn]K([γGlu-γGlu-C18 diacid])AQ[Aib]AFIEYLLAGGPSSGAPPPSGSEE-NH2 [Example 1069]
Ans: 9.38

Q: Look at this substance and give its reported pEC50. H-Y[Aib]QGTFTSDFSK[αMeL]LDKK([AEEA-γGlu-C20 diacid])AQ[Aib]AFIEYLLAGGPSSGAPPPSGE-NH2 [Example 11]
Ans: 9.63
